Provenance of the data: the supplement of paper PMC6555819

- Test system: RXRa DBDmut IVT, anti-RXR (DBD mutation: RXRa K156A/R161A, NR concentration 90 nM)
- procedure text: PBM binding z-score (relative to random genomic background probes); higher = stronger binding; sequences stand for … in GC…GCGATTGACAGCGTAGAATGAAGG
endpoint label: PBM binding z-score
Please respond with just the number, no unit label.

Query: Requested read-out PBM binding z-score, target or system RXRa DBDmut IVT, anti-RXR (DBD mutation: RXRa K156A/R161A, NR concentration 90 nM), entry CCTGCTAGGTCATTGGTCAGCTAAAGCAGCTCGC
Response: 3.02

Query: Consider next the sequence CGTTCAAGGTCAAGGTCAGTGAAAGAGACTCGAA in the same way.
Response: 3.86

Query: Now consider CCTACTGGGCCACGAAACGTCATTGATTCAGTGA .
Response: -0.404

Query: Could you do the same for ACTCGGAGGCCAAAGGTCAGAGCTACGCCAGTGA , please?
Response: 0.776

Query: Okay, and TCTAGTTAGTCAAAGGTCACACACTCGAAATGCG ?
Response: 2.03

* * *

- System: PPARg:RXRa 30nM:10nM, anti-RXR (NR concentration 30 nM, RXRa partner concentration 10 nM)
- procedure text: PBM binding z-score (relative to random genomic background probes); higher = stronger binding; sequences stand for … in GC…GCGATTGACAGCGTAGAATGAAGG
Short version: PBM binding z-score at least 1 is true, less is false.

Consider the worked cases shown below.
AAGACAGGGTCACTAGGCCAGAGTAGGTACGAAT | true
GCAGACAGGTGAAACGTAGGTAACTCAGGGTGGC | false

Query: Is the recorded value of PBM binding z-score equal to or greater than 1 for this sequence? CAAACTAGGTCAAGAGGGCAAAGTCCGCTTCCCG
Response: true

Query: Also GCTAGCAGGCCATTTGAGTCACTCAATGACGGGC ?
Response: false

* * *

- System: THRa:RXRa (NR concentration 90 nM, RXRa partner concentration 90 nM)
- procedure text: PBM binding z-score (relative to random genomic background probes); higher = stronger binding; sequences stand for … in GC…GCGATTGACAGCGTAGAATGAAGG
Threshold check on PBM binding z-score: at or above 3 gives Satisfied, strictly below gives Not satisfied.

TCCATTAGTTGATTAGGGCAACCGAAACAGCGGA | Not satisfied
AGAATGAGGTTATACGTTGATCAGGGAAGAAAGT | Not satisfied

// switching to the query sequence
Query: Please check the record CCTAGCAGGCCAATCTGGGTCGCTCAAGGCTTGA and state if its PBM binding z-score is at or above 3.
Response: Not satisfied

* * *

- Tested on: RARg:RXRa (NR concentration 270 nM, RXRa partner concentration 90 nM)
- procedure text: PBM binding z-score (relative to random genomic background probes); higher = stronger binding; sequences stand for … in GC…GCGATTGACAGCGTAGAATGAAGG
We use 3 as the dividing line for PBM binding z-score: on or above the line is Y, below is N.

Query: Exam item: decide whether the reported PBM binding z-score for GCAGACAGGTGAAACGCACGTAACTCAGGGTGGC is at least 3.
Response: N

Query: Please do the same for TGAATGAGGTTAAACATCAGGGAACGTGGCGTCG as well.
Response: N

Query: Query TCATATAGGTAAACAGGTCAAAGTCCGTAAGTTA next
Response: Y

Query: For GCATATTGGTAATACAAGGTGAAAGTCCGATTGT then?
Response: N

Query: Record: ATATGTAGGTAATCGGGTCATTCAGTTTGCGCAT
Response: N

Query: Let us now turn to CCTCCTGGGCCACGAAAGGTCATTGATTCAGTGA
Response: Y

Query: Now the same for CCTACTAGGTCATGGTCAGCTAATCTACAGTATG
Response: Y

* * *

- Test system: PPARg:RXRa 30nM:10nM, anti-RXR (NR concentration 30 nM, RXRa partner concentration 10 nM)
- procedure text: PBM binding z-score (relative to random genomic background probes); higher = stronger binding; sequences stand for … in GC…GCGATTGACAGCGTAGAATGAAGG
endpoint label: PBM binding z-score
// return a plain number; no unit text

Examples from the recorded data:
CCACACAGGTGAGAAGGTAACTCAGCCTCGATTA | -0.223
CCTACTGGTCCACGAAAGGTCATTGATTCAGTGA | 0.699
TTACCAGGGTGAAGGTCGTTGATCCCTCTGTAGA | 4.84
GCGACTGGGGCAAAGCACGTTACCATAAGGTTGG | 0.24
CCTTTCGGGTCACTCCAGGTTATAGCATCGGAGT | 1.09

Please turn your attention to the following entry.
Query: Entry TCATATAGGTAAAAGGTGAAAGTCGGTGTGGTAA has what PBM binding z-score?
Response: 10.3

* * *

- Tested on: THRa:RXRa (NR concentration 90 nM, RXRa partner concentration 90 nM)
- procedure text: PBM binding z-score (relative to random genomic background probes); higher = stronger binding; sequences stand for … in GC…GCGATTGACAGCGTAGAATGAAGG
Listing of recorded PBM binding z-score by entry.
# output: bare number, no unit

Query: State the recorded PBM binding z-score for this entry: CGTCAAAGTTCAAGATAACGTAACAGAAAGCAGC
Response: 1.72

Query: Could you do the same for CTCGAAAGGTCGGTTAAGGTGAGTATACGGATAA , please?
Response: 4.88

Query: Similarly, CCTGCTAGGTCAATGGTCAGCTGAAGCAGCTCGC ?
Response: 2.36

Query: Next sequence up: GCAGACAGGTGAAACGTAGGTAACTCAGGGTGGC
Response: 1.2

Query: Same lookup for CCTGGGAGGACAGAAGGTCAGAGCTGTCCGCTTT , please.
Response: 2.69

Query: Please answer likewise for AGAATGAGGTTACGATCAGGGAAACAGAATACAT
Response: 2.99

Query: Moving on to the next sequence: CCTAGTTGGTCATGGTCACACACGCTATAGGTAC
Response: 0.458

Query: Also AGAATGAGGTTACTAAGATCAGGGAATTGCGGTC ?
Response: 2.28

Query: Next: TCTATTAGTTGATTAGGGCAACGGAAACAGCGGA
Response: 0.578

* * *

- Test system: RARa homodimer (NR concentration 270 nM)
- procedure text: PBM binding z-score (relative to random genomic background probes); higher = stronger binding; sequences stand for … in GC…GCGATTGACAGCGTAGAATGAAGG
endpoint label: PBM binding z-score
# answer = number (no unit)

Guide cases for PBM binding z-score, answers given:
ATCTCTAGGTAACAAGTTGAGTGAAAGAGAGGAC | 1.29
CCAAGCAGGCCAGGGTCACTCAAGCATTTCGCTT | 0.312
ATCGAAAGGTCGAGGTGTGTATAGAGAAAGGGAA | 1.16
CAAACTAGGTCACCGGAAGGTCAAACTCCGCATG | 2.71

Query: # value lookup — system RARa homodimer (NR concentration 270 nM), readout PBM binding z-score, item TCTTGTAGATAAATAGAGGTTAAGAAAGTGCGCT
Response: 1.33

Query: Then what about the sequence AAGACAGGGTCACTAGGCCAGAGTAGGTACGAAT ?
Response: -0.193

* * *

- System: PPARa:RXRa (NR concentration 270 nM, RXRa partner concentration 90 nM)
- procedure text: PBM binding z-score (relative to random genomic background probes); higher = stronger binding; sequences stand for … in GC…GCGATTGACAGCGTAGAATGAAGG
Each item that follows carries a reported PBM binding z-score.
Lab note: jot down the number only; don't add units.

# example entries with known answers
AGAACGAGGGCACGCTTAGTTGATAGCAGAGTAG | 2.26
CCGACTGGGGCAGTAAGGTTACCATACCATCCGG | 1.16
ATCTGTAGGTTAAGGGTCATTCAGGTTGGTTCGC | 5.72
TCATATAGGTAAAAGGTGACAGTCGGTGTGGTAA | 5.19
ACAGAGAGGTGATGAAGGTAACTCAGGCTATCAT | 0.952

Okay, next one:
Query: Param readout = PBM binding z-score; param system = PPARa:RXRa (NR concentration 270 nM, RXRa partner concentration 90 nM); param query = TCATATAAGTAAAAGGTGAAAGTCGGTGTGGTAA ; response: value
Response: 3.59

* * *

- System: VDR:RXRa (NR concentration 270 nM, RXRa partner concentration 90 nM)
- procedure text: PBM binding z-score (relative to random genomic background probes); higher = stronger binding; sequences stand for … in GC…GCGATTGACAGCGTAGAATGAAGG
endpoint label: PBM binding z-score
Answer field: number only, no words.

Previously resolved entries follow.
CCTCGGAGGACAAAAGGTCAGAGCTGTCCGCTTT | 3.17
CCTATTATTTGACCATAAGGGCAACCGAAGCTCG | 1.28

Query: Find the recorded PBM binding z-score belonging to CCTACTGGGCCAAAAAAGTCATTGATGCCGATAA and report it.
Response: -0.174

Query: Can you handle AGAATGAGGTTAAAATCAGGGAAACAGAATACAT next?
Response: 1.33

Query: Now the same for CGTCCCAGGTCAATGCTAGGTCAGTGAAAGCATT
Response: 3.68

Query: Record: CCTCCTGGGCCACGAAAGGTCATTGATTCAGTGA
Response: 4.04

Query: What about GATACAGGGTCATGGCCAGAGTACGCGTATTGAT ?
Response: 4.83

Query: Same thing, different sequence: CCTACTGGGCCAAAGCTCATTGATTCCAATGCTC
Response: -0.593
